Here's a roundup of pKi values tested on Coagulation factor XI (Homo sapiens), taken from various published works.
pKi: −log10 of the molar value.

Illustrative cases are given below, each with its answer.
>  <COMPOUND>
O=C(C(Cc1ccccc1)n1ccc(-c2cc(Cl)ccc2[N+](=O)[O-])cc1=O)N1CCC(N2CC[C@@H](O)C2)CC1 (stereo partly drawn)

>  <pKi>
< 5.00

$$$$
>  <COMPOUND>
O=C(/C=C/c1cc(Cl)ccc1-n1cnnn1)N[C@H]1CCCCCNc2cc(NC(=O)OC[C@H]3CCCO3)ccc2-c2c[nH]c1n2

>  <pKi>
> 8.30

$$$$

Case O=C1CCCC[C@H](C(=O)N2CCC[C@@]3(C2)OC(=O)Nc2ccc(Cl)cc23)c2nc(c[nH]2)-c2ccc(F)cc2N1 (single isomer, unassigned) , Coagulation factor XI (Homo sapiens), pKi recorded as < 5.30
